experiment: NCI Yeast Anticancer Drug Screen. Data for the mec2-1 strain (AID 157); conditions: S. cerevisiae mec2-1 strain, at 5.0 µM (retest, dose inferred, filed as 0.5)
About 79,000 compounds went through this panel and 15% of them were active in at least one assay; those are over-represented in the sample as a whole. Activity calls are given as the source filed them. Cut-off read from the data, not from the text of the source: active = growth inhibition above about 70%; inactive = the rest.
Answer with one of the outcomes active, inactive

(Q) For ClC1c2ccccc2Cc2cccnc21 (centres undefined) , which call appears in the assay record?
(A) inactive

(Q) Entry "N#CC(=C1C=CC(=NOC(=O)Nc2ccccc2)C=C1)c1ccccc1" : call = ?
(A) inactive

(Q) Check the results log: what was the call for CC(C)C1=CC(=O)C(C)(C2C(O)CC3(C)C4CC=C5C(CCC(O)C5(C)C)C4(C)C(=O)CC23C)O1 (centres undefined) ?
(A) active

(Q) Would you mind telling me which call this test gave "CC(C=O)=C(c1ccccc1)c1ccccc1" ?
(A) inactive

(Q) Recorded call for "CC(=O)Nc1ccc2c(ccc3cccc[n+]32)c1" ?
(A) inactive

(Q) # lookup: test call for "CCCc1nc2c(nc1C)C(=O)C=CC2=O"
(A) inactive

(Q) Field: outcome | Entry: "NC(=O)N/N=C(/Cc1nc2ccccc2nc1C/C(=N/NC(N)=O)c1cccc2ccccc12)c1cccc2ccccc12"
(A) inactive

(Q) Which result was noted for this molecule in the test: "NC(=S)N/N=C1\NC(=O)/C(=C/c2ccc3c(c2)OCO3)S1"
(A) inactive

(Q) How did this test come out for N#CC1Sc2ccccc2N1C(=O)Oc1ccccc1 (centres undefined) ?
(A) inactive

(Q) Hi, sorry to bother you, what did the test record for "CCCCCCCCCCCCCCCC(=O)NCCN(C)C" ?
(A) inactive

(Q) Which outcome was assigned to "c1nc2nc(N3CCOCC3)nc(N3CCCCC3)c2[nH]1" in this test?
(A) inactive

(Q) Short answer needed: outcome of this test for "COc1ccc(N=Nc2ccc(O)cc2)cc1" ?
(A) inactive

(Q) Please let me know the test result on file for "Cc1nn(CCO)c(=O)c(C#N)c1C" .
(A) inactive

(Q) How did this test come out for "C[C@]12CC[C@@H]3c4ccc(O)cc4CC[C@H]3[C@@H]1CC[C@@H]2NCCCCCCO" ?
(A) inactive

(Q) Assay result, entry "C#Cc1cccc(N=Cc2cc(Cl)cc(Cl)c2O)c1" — outcome?
(A) inactive

(Q) Answer briefly: the call reported for "O=C(Cc1ccccc1)c1ccccc1C(=O)NNc1ccccc1" in this assay.
(A) inactive

(Q) # outcome recorded in this test, key = "O=S(=O)(Nc1ccccc1-c1ccc(Cl)cc1)c1ccccc1"
(A) inactive

(Q) What did the test return for "O=S(=O)(Nc1ccccc1Cl)c1ccccc1" ?
(A) inactive

(Q) Identify the outcome logged in this assay for the molecule shown: "CC(=O)Oc1ccc2cc(-c3ccccc3OC(C)=O)c(=O)oc2c1"
(A) inactive

(Q) Please let me know the test result on file for "O=C1c2ccccc2C(=O)c2sc(Nc3ccc(Cl)c(Cl)c3)nc21" .
(A) active

(Q) Hey, what did the test say about "Cc1cc(Br)cc(C(=O)Cl)c1O" ?
(A) inactive

(Q) Tell me the assay call for COC(=O)C12CCC(C)(C)CC1C1=CCC3C4(C)CC(O)C(O)C(C)(C(=O)OC)C4CCC3(C)C1(CO)CC2 (centres undefined) please.
(A) inactive

(Q) Tell me the recorded outcome of this test for "ClC1(c2ccccc2)c2ccccc2-c2ccccc21" .
(A) inactive

(Q) In this assay, the call recorded for CC1SC2(C(=O)Nc3ccc(Br)cc32)N(c2ccc(Cl)cc2)C1=O (centres undefined) was what?
(A) inactive
